TESTED SYSTEM: α5β3γ2 receptor (Homo sapiens, UniProt P18507+P31644)
Construct: expressed in transfected cells; host or cells: HEK-293 (stably transfected)
Sequence (P31644 32-462): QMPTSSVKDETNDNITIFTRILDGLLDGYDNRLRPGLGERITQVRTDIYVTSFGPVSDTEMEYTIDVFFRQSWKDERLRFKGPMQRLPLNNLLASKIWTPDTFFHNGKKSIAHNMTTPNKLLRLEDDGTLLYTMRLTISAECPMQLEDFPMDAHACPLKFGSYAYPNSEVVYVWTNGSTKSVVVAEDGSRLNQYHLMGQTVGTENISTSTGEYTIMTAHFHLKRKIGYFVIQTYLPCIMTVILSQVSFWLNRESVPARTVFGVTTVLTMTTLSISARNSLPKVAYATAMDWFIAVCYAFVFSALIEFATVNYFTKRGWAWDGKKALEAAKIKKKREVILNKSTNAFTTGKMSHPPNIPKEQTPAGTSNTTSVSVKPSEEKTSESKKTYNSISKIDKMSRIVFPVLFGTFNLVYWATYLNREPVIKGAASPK
Sequence (P28472 26-473 isoform P28472-2 partner limits assumed): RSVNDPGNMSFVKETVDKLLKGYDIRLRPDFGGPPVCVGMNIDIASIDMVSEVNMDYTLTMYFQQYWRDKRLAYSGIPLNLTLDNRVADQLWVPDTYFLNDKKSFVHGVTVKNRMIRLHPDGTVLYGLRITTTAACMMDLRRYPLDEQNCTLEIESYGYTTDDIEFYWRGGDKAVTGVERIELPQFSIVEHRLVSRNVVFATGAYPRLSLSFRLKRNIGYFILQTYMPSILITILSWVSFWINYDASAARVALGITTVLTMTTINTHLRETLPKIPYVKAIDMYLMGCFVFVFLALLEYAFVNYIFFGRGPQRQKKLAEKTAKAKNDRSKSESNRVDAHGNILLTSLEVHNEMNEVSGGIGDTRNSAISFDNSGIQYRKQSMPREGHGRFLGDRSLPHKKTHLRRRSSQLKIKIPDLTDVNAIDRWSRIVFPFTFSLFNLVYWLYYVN
Sequence (P18507 40-475): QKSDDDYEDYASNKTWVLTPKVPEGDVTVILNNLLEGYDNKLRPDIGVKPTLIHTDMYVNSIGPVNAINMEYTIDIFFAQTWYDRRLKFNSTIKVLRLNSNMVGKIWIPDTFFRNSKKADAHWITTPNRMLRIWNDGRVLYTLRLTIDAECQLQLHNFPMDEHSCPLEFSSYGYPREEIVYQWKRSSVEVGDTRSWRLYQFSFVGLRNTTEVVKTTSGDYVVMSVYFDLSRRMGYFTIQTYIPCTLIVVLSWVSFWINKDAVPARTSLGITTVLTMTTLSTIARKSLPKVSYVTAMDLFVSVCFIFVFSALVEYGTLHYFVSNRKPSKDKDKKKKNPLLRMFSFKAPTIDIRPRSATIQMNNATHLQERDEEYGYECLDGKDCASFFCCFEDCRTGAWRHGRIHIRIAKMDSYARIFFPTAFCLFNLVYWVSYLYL
ASSAY INFO: Cell level screening: whole cell patch clamp, inverse agonist efficacy
Assay type: cell-based
SETTINGS: HEK293, compound 100 nM; GABA 0.05-0.1 μM; HEK293 α5β3γ2; clamped at −60 mV; (Ipost-Ipre)*100/Ipre; read-out: inverse agonism efficacy(%)
PROPERTY NAME: inhibition at 0.1 µM (%)

Solved cases below.
{"columns": ["MOLECULE", "UNITS OF MEASURE", "RESULT VALUE"],
 "data": [
  ["O=C(c1ccc(COc2nn3c(-c4cc(CO)on4)nnc3c3ccccc23)nc1)N1CCS(=O)(=O)CC1 [Compound 40]", "%", 29],
  ["O=C(NN1CCS(=O)(=O)CC1)c1ccc(COc2nn3c(-c4cc(CO)on4)nnc3c3ccccc23)nc1 [Compound 54]", "%", 34],
  ["O=C(NN1CCOCC1)c1ccc(COc2nn3c(-c4cc(CO)on4)nnc3c3ccccc23)nc1 [Compound 33]", "%", 33],
  ["CCNC(=O)c1ccc(COc2nn3c(-c4cc(C)on4)nnc3c3ccccc23)nc1 [Compound 07]", "%", 24.8],
  ["O=C(NC1CCOC1)c1ccc(COc2nn3c(-c4cc(CO)on4)nnc3c3ccccc23)nc1 (centres unmarked) [Compound 47]", "%", 51.5],
  ["COCCNC(=O)c1ccc(COc2nn3c(-c4cc(C)on4)nnc3c3ccccc23)nc1 [Compound 08]", "%", 34],
  ["Cc1cc(-c2nnc3c4ccccc4c(OCc4ccc(C(=O)N[C@H](C)CO)cc4Br)nn23)no1 [Compound 32]", "%", 39.2],
  ["O=C(NCCO)c1ccc(COc2nn3c(-c4cc(CO)on4)nnc3c3ccccc23)nc1 [Compound 39]", "%", 49]
]}

A. Cc1cc(-c2nnc3c4ccccc4c(OCc4ccc(C(=O)N[C@H](C)CO)cn4)nn23)no1 [Compound 02]
B. COCCNC(=O)c1ccc(COc2nn3c(-c4cc(CO)on4)nnc3c3ccccc23)nc1 [Compound 43]
// query Would you mind telling me which has the lower recorded inhibition at 0.1 µM between A and B ? // respond with label for picked entry
// result B
(B: 27.9%, A: 52.2%)

###

TESTED SYSTEM: α5β3γ2 receptor (Homo sapiens, UniProt P18507+P31644)
Construct: expressed in transfected cells; host or cells: HEK-293 (stably transfected)
ASSAY INFO: Cell level screening: whole cell patch clamp, inverse agonist efficacy
Assay type: cell-based
SETTINGS: ratio to α5IA; compound 100 nM
PROPERTY NAME: inverse agonism efficacy of the compound/α5IA inverse agonism efficacy

{"columns": ["COMPOUND", "TESTED SYSTEM", "RESULT VALUE"],
 "data": [
  ["COCCNC(=O)c1ccc(COc2nn3c(-c4cc(CO)on4)nnc3c3ccccc23)nc1 [Compound 43]", "α5β3γ2 receptor (Homo sapiens, UniProt P18507+P31644)", 1.239],
  ["O=C(NC1CCC1)c1ccc(COc2nn3c(-c4cc(CO)on4)nnc3c3ccccc23)nc1 [Compound 48]", "α5β3γ2 receptor (Homo sapiens, UniProt P18507+P31644)", 1.915]
]}

I. Cn1cc(NC(=O)c2ccc(COc3nn4c(-c5cc(CO)on5)nnc4c4ccccc34)nc2)cn1 [Compound 37]
II. Cc1nc(COc2nn3c(-c4cc(CO)on4)nnc3c3ccccc23)ccc1C(=O)N[C@H](C)CO [Compound 61]
// query Hi there! Just curious which has the higher inverse agonism efficacy of the compound/α5IA inverse agonism efficacy between I and II . // respond with label for picked entry
// result II
(II: 2.047, I: 1.419)

###

TESTED SYSTEM: α5β3γ2 receptor (Homo sapiens, UniProt P18507+P31644)
Construct: expressed in transfected cells; host or cells: HEK-293 (stably transfected)
ASSAY INFO: Cell level screening: whole cell patch clamp, inverse agonist efficacy
Format: cell-based
SETTINGS: HEK293, compound 100 nM; GABA 0.05-0.1 μM; HEK293 α5β3γ2; clamped at −60 mV; (Ipost-Ipre)*100/Ipre; read-out: inverse agonism efficacy(%)
PROPERTY NAME: inhibition at 0.1 µM (%)

Solved cases below.
{"columns": ["COMPOUND", "TESTED SYSTEM", "PROPERTY NAME", "UNITS OF MEASURE", "RESULT VALUE"],
 "data": [
  ["Cn1cc(NC(=O)c2ccc(COc3nn4c(-c5cc(CO)on5)nnc4c4ccccc34)nc2)cn1 [Compound 37]", "α5β3γ2 receptor (Homo sapiens, UniProt P18507+P31644)", "inhibition at 0.1 µM", "%", 32],
  ["CN(C)C(=O)c1ccc(COc2nn3c(-c4cc(CO)on4)nnc3c3ccccc23)nc1 [Compound 45]", "α5β3γ2 receptor (Homo sapiens, UniProt P18507+P31644)", "inhibition at 0.1 µM", "%", 30.2],
  ["CC(C)NC(=O)c1ccc(COc2nn3c(-c4cc(CO)on4)nnc3c3ccccc23)nc1 [Compound 38]", "α5β3γ2 receptor (Homo sapiens, UniProt P18507+P31644)", "inhibition at 0.1 µM", "%", 40],
  ["Cc1nc(-c2nnc3c4ccccc4c(OCc4ccc(C(=O)N[C@H](C)CO)cc4C#N)nn23)no1 [Compound 31]", "α5β3γ2 receptor (Homo sapiens, UniProt P18507+P31644)", "inhibition at 0.1 µM", "%", 47.8],
  ["Cc1nc(COc2nn3c(-c4cc(CO)on4)nnc3c3ccccc23)ccc1C(=O)N[C@H](C)CO [Compound 61]", "α5β3γ2 receptor (Homo sapiens, UniProt P18507+P31644)", "inhibition at 0.1 µM", "%", 46.2]
]}

I. C[C@H](CO)NC(=O)c1ccc(COc2nn3c(-c4cc(CO)on4)nnc3c3ccccc23)c(C#N)c1 [Compound 55]
II. Cc1cc(-c2nnc3c4ccccc4c(OCc4ccc(C(=O)NN5CCOCC5)cn4)nn23)no1 [Compound 01]
III. Cc1cc(-c2nnc3c4ccccc4c(OCc4cn(C)nn4)nn23)no1 [α5IA, reference compound]
// query Ascending by inhibition at 0.1 µM, please: list the compounds accordingly. Please, when replying, give the labels in the order that was requested.
// result III, I, II

###

TESTED SYSTEM: α5β3γ2 receptor (Homo sapiens, UniProt P18507+P31644)
Construct: expressed in transfected cells; host or cells: HEK-293 (stably transfected)
ASSAY INFO: Supplementary data for cell level screening: new electrophysiology method (I. Lecker et al)
Assay type: cell-based
SETTINGS: new method, CsCl intracellular solution; GABA 0.1˜0.3 CM; other procedures as previous method
PROPERTY NAME: Inverse agonism efficacy(%)

Solved cases below.
{"columns": ["MOLECULE", "TESTED SYSTEM", "UNITS OF MEASURE", "Inverse agonism efficacy(%)"],
 "data": [
  ["O=C(NC1CCC1)c1ccc(COc2nn3c(-c4cc(CO)on4)nnc3c3ccccc23)nc1 [Compound 48]", "α5β3γ2 receptor (Homo sapiens, UniProt P18507+P31644)", "%", "−20"],
  ["Cc1cc(-c2nnc3c4ccccc4c(OCc4ccc(C(=O)NC5CCN(C)CC5)cn4)nn23)no1 [Compound 11]", "α5β3γ2 receptor (Homo sapiens, UniProt P18507+P31644)", "%", "−17.71"],
  ["Cc1cc(-c2nnc3c4ccccc4c(OCc4ccc(C(=O)NCC5CCCO5)cn4)nn23)no1 (stereo not shown) [Compound 26]", "α5β3γ2 receptor (Homo sapiens, UniProt P18507+P31644)", "%", "−21.5"],
  ["Cc1cc(-c2nnc3c4ccccc4c(OCc4ccc(C(=O)N[C@H]5CCC[C@@H]5O)cn4)nn23)no1 [Compound 03]", "α5β3γ2 receptor (Homo sapiens, UniProt P18507+P31644)", "%", "−29.33"],
  ["O=C(NC1CCOC1)c1ccc(COc2nn3c(-c4cc(CO)on4)nnc3c3ccccc23)nc1 (stereo not shown) [Compound 47]", "α5β3γ2 receptor (Homo sapiens, UniProt P18507+P31644)", "%", "−26.875"],
  ["O=C(NC1CCOCC1)c1ccc(COc2nn3c(-c4cc(CO)on4)nnc3c3ccccc23)nc1 [Compound 44]", "α5β3γ2 receptor (Homo sapiens, UniProt P18507+P31644)", "%", "−20.8"],
  ["Cc1cc(-c2nnc3c4ccccc4c(OCc4ccc(C(=O)NCCS(C)(=O)=O)cn4)nn23)no1 [Compound 27]", "α5β3γ2 receptor (Homo sapiens, UniProt P18507+P31644)", "%", "−32.1"],
  ["Cc1cc(-c2nnc3c4ccccc4c(OCc4ccc(C(=O)NCC5CC5)cn4)nn23)no1 [Compound 24]", "α5β3γ2 receptor (Homo sapiens, UniProt P18507+P31644)", "%", "−34.5"]
]}

P. O=C(NC1CC1)c1ccc(COc2nn3c(-c4cc(CO)on4)nnc3c3ccccc23)nc1 [Compound 36]
Q. Cc1cc(-c2nnc3c4ccccc4c(OCc4ccc(C(=O)NCCN5CCOCC5)cn4)nn23)no1 [Compound 12]
// query Hi there! Just curious which has the higher Inverse agonism efficacy(%) between P and Q . // respond with label for picked entry
// result Q
